test system: KB; assay: In vitro cytotoxicity against parental and drug resistant nasopharyngeal human tumor cell line KB; format: functional, cell-based
OBSERVED PROPERTY: pIC50
Entry type: numeric. Quantity: pIC50, the -log10 of concentration in molar units.

IN: Entry under review: C=C/C(C)=C/C[C@@]1(C)[C@@H](C)CCC23C(=C[C@@H](OC(=O)C(C)C)C[C@@H]21)[C@H](OC(C)=O)O[C@@H]3OC(C)=O (some centres undefined) . Reported pIC50?
OUT: 6.05

IN: Field entry: C=C/C(C)=C/C[C@@]1(C)[C@@H](C)C[C@@H](O)C23C(=C[C@@H](OC(=O)C(C)C)C[C@@H]21)[C@H](OC(C)=O)O[C@@H]3OC(C)=O (some centres undefined)
OUT: 6.05

IN: Field entry: C=C/C(C)=C/C[C@]1(C)[C@H]2C[C@H](OC(=O)C(C)CC)C=C3[C@H](OC(C)=O)O[C@H](OC(C)=O)[C@@]32[C@H](O)C[C@@H]1C (some centres undefined)
OUT: 5.96

---

system: KB; test: In vitro cytotoxicity against parental and drug resistant vincristine resistant human tumor cell line KB-VIN; type: functional, cell-based
Please go through the items and note down their IC50.
Just the number in nM, nothing appended.

IN: Reported IC50 for KB, given C=C/C(C)=C/C[C@@]1(C)[C@@H](C)CCC23C(=C[C@@H](OC(=O)C(C)C)C[C@@H]21)[C@H](OC(C)=O)O[C@@H]3OC(C)=O (some centres undefined) ?
OUT: 1000

IN: Field entry: C=C/C(C)=C/C[C@@]1(C)[C@@H](C)C[C@@H](O)C23C(=C[C@@H](OC(=O)C(C)C)C[C@@H]21)[C@H](OC(C)=O)O[C@@H]3OC(C)=O (some centres undefined)
OUT: 1100

IN: Field entry: C=C/C(C)=C/C[C@]1(C)[C@H]2C[C@H](OC(=O)C(C)CC)C=C3[C@H](OC(C)=O)O[C@H](OC(C)=O)[C@@]32[C@H](O)C[C@@H]1C (some centres undefined)
OUT: 1200

---

system: 1A9; assay: In vitro cytotoxicity against parental and drug resistant ovarian human tumor cell line IA9; assay type: functional, cell-based
OBSERVED PROPERTY: IC50 (nM)
Just the number in nM, nothing appended.

IN: Entry under review: C=C/C(C)=C/C[C@@]1(C)[C@@H](C)C[C@@H](O)C23C(=C[C@@H](OC(=O)C(C)C)C[C@@H]21)[C@H](OC(C)=O)O[C@@H]3OC(C)=O (stereo partly drawn) . Reported IC50?
OUT: 500

IN: Field entry: C=C/C(C)=C/C[C@]1(C)[C@H]2C[C@H](OC(=O)C(C)CC)C=C3[C@H](OC(C)=O)O[C@H](OC(C)=O)[C@@]32[C@H](O)C[C@@H]1C (stereo partly drawn)
OUT: 1000

IN: Field entry: C=C/C(C)=C/C[C@@]1(C)[C@@H](C)CCC23C(=C[C@@H](OC(=O)C(C)C)C[C@@H]21)[C@H](OC(C)=O)O[C@@H]3OC(C)=O (stereo partly drawn)
OUT: 600

---

system: A549; test: In vitro cytotoxicity against parental and drug resistant lung human tumor cell line A549; format: functional, cell-based
Please go through the items and note down their IC50.
Just the number in µM, nothing appended.

IN: Entry under review: C=C/C(C)=C/C[C@]1(C)[C@H]2C[C@H](OC(=O)C(C)CC)C=C3[C@H](OC(C)=O)O[C@H](OC(C)=O)[C@@]32[C@H](O)C[C@@H]1C (some centres undefined) . Reported IC50?
OUT: 1.1

IN: Field entry: C=C/C(C)=C/C[C@@]1(C)[C@@H](C)C[C@@H](O)C23C(=C[C@@H](OC(=O)C(C)C)C[C@@H]21)[C@H](OC(C)=O)O[C@@H]3OC(C)=O (some centres undefined)
OUT: 0.5

IN: Field entry: C=C/C(C)=C/C[C@@]1(C)[C@@H](C)CCC23C(=C[C@@H](OC(=O)C(C)C)C[C@@H]21)[C@H](OC(C)=O)O[C@@H]3OC(C)=O (some centres undefined)
OUT: 1.1
